Property: fraction unbound at 0.25 h, 8 ug/ml; scope: individual molecules
- method description: Protein binding in rat plasma at 8 ug/ml after 15 mins by UPLC based charcoal adsorption method
- Format: ADME, cell-free
- stated conditions: read-out: PPB (converted)

Which value of fraction unbound at 0.25 h, 8 ug/ml has been reported for Cc1ccc(/C=C2\CN(Cc3cn(Cc4ccccc4F)nn3)C/C(=C\c3ccc(C)cc3)C2=O)cc1 in the records?
0.0301

Next:
Which value of fraction unbound at 0.25 h, 8 ug/ml has been reported for O=C1/C(=C/c2ccccc2F)CN(Cc2cn(Cc3ccc(F)cc3)nn2)C/C1=C\c1ccccc1F in the records?
0.188

* * *

- method description: Half life in liver microsomes (unknown origin) at 5 ug/ml in presence of NADPH by UPLC analysis
- Assay type: ADME, Microsome
metric: half-life at 5 ug/ml (min)
Report the figure in min without appending any unit label.

Which value of half-life at 5 ug/ml has been reported for O=C1/C(=C/c2ccccc2F)CN(Cc2cn(Cc3ccc(F)cc3)nn2)C/C1=C\c1ccccc1F in the records?
7.52

* * *

- method description: Stability of the compound in simulated intestinal fluid assessed as compound remaining after 2 hrs at 37 degC by UPLC analysis
- Type: ADME
- stated conditions: read-out: Stability
metric: remaining at 2 h (%)
Report the figure in % without appending any unit label.

Which value of remaining at 2 h has been reported for O=C1/C(=C/c2ccccc2F)CN(Cc2cn(Cc3ccc(F)cc3)nn2)C/C1=C\c1ccccc1F in the records?
65

Next:
Which value of remaining at 2 h has been reported for Cc1ccc(/C=C2\CN(Cc3cn(Cc4ccccc4F)nn3)C/C(=C\c3ccc(C)cc3)C2=O)cc1 in the records?
30

* * *

- method description: Intrinsic clearance in liver microsomes (unknown origin) assessed per mg of protein in presence of NADPH by UPLC analysis
- Type: ADME, Microsome
metric: CLint
Please append the unit to your numeric answer.

Which value of CLint has been reported for COc1cc(/C=C/C(=O)CC(=O)/C=C/c2ccc(O)c(OC)c2)ccc1O in the records?
0.101 mL/min/mg

* * *

Property: Ratio IC50; scope: individual compounds
- Tested on: DU-145
- method description: Potency index, ratio of curcumin IC50 to compound IC50 in human DU145 cells
- Type: functional

Examples with answers:
Which value of Ratio IC50 has been reported for COc1ccc(/C=C2\CN(Cc3cn(Cc4ccccc4Cl)nn3)C/C(=C\c3ccc(OC)cc3)C2=O)cc1 in the records?
≤ 9.5

Which value of Ratio IC50 has been reported for COc1ccc(/C=C2\CN(Cc3cn(Cc4ccccc4F)nn3)C/C(=C\c3ccc(OC)cc3)C2=O)cc1 in the records?
≤ 9.5

Next up:
Which value of Ratio IC50 has been reported for COc1ccc(/C=C2\CN(Cc3cn(Cc4cccc(Cl)c4)nn3)C/C(=C\c3ccc(OC)cc3)C2=O)cc1 in the records?
≤ 9.5

* * *

- method description: Intrinsic hepatic clearance in liver microsomes (unknown origin) assessed per mg of protein at 8 ug/ml in presence of NADPH by UPLC analysis
- Format: ADME, Microsome
- stated conditions: read-out: CLH (converted)
metric: CLint scaled at 8 ug/ml (mL/min/kg)
Report the figure in mL/min/kg without appending any unit label.

Which value of CLint scaled at 8 ug/ml has been reported for Cc1ccc(/C=C2\CN(Cc3cn(Cc4ccccc4F)nn3)C/C(=C\c3ccc(C)cc3)C2=O)cc1 in the records?
2630
